The values you see were collected from the Kinase Knowledgebase extract (Sharma et al. 2016).

experimental.system: PIK3CG (human)
assay.info: Cell-Based Assay
protocol.conditions: u937
recorded.endpoint: IC50 (nM)

[a] N#Cc1c(N)ncnc1N1C[C@@H](F)C[C@H]1c1nc2cccc(C(F)(F)F)c2c(=O)n1-c1ccccc1
[b] O=c1c2c(Cl)cccc2nc([C@@H]2C[C@H](O)CN2c2ncnc3[nH]cnc23)n1-c1ccccc1
Task: Between a and b , whose measured IC50 reads higher? // output: label of the selected item
Output: b

[I] N#Cc1c(N)ncnc1N1CCC[C@H]1c1nc2cccc(C(F)(F)F)c2c(=O)n1-c1cccnc1
[II] Cc1nc(N)nc(N2C[C@@H](O)C[C@H]2c2nc3cccc(OC(F)F)c3c(=O)n2-c2ccccc2)c1C#N
[III] N#Cc1c(N)ncnc1N1OCC[C@H]1c1nc2cccc(Cl)c2c(=O)n1-c1ccccc1
Task: Please give the order of these molecules when sorted by IC50, largest value leading. Arrange the labels as the request states and list them.
Output: I, III, II
(I: 934 nM, III: 144 nM, II: 70 nM)

[I] Nc1nc(N2C[C@@H](F)C[C@H]2c2nc3cccc(C(F)(F)F)c3c(=O)n2-c2cccc(F)c2)c2nc[nH]c2n1
[II] N#Cc1c(N)ncnc1N1CCC[C@H]1c1nc2cccc(F)c2c(=O)n1-c1ccccc1
[III] Cc1nc(N)nc(N2C[C@@H](F)C[C@H]2c2nc3cccc(C(F)(F)F)c3c(=O)n2-c2cccc(F)c2)c1C#N
[IV] Cc1ccccc1-n1c([C@@H]2CCCN2c2ncnc(N)c2C#N)nc2cccc(Cl)c2c1=O
Task: Exam item: list the entries in increasing order of IC50. Respond with the label ranking, as requested.
Output: IV, III, I, II
(IV: 27 nM, III: 42 nM, I: 71 nM, II: 148 nM)

[A] O=c1c2c(C(F)(F)F)cccc2nc([C@@H]2C[C@H](F)CN2c2ncnc3[nH]cnc23)n1-c1ccccc1
[B] Cc1nc(N)nc(N2C[C@@H](O)C[C@H]2c2nc3cccc(C(F)(F)F)c3c(=O)n2-c2ccccc2)c1C#N
Task: Pick the one with the larger IC50: A vs B Reply briefly: the label of your chosen item.
Output: A
(A: 88 nM, B: 59 nM)

###

experimental.system: PIK3CD (Human) (UniProt O00329)
Sequence (O00329 whole entry, looked up): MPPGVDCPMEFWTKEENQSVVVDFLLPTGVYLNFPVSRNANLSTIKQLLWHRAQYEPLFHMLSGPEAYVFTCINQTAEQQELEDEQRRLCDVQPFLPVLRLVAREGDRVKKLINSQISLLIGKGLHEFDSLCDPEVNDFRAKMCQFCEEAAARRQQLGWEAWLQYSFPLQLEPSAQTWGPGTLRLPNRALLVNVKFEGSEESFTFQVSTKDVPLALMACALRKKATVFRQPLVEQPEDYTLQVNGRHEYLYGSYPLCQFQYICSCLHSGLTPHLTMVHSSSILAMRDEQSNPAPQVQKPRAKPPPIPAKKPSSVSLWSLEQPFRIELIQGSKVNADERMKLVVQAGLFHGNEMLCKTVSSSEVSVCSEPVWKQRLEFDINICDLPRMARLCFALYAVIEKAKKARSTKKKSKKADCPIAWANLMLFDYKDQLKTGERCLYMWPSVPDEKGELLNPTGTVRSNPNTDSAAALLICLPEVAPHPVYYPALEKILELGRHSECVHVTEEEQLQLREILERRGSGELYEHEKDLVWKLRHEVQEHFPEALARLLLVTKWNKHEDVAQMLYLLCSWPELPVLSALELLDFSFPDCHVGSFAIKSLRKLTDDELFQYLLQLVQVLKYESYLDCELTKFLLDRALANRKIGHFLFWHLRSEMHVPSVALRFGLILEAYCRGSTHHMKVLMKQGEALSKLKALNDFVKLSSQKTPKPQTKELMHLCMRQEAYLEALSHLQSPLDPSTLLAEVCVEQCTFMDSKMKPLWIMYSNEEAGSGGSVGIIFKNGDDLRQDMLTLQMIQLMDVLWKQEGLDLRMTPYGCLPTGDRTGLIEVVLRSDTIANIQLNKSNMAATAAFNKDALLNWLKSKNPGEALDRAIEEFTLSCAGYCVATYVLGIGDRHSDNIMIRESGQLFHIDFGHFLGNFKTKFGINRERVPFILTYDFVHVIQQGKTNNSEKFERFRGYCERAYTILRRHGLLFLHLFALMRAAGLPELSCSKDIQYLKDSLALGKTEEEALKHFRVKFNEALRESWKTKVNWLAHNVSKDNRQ
assay.info: Cell-Based Assay
protocol.conditions: rat-1
recorded.endpoint: IC50 (nM)

[P] Cc1nc(N)nc(N2C[C@@H](F)C[C@H]2c2nc3cccc(C(F)(F)F)c3c(=O)n2-c2cccnc2)c1C#N
[Q] Cc1nc(N)nc(N2C[C@@H](F)C[C@H]2c2nc3cccc(C(F)(F)F)c3c(=O)n2-c2ccccc2)c1C#N
Task: Select the item whose IC50 value is smaller, choosing between P and Q . Respond using the label that marks the chosen record.
Output: Q
(Q: 12 nM, P: 23 nM)

[I] Nc1nc(N2C[C@@H](F)C[C@H]2c2nc3cccc(C(F)(F)F)c3c(=O)n2-c2ccccc2)c2nc[nH]c2n1
[II] CS(=O)(=O)c1c(F)ccc2nc([C@@H]3CCCN3c3ncnc(N)c3C#N)n(-c3ccccc3)c(=O)c12
[III] Cc1nc(N)nc(N2CCC[C@H]2c2nc3cccc(Cl)c3c(=O)n2-c2ccccc2)c1C#N
[IV] O=c1c2c(Cl)cccc2nc([C@@H]2C[C@H](OC(F)F)CN2c2ncnc3[nH]cnc23)n1-c1ccccc1
[V] CN(C)n1c([C@@H]2CCCN2c2nc(N)nc3[nH]cnc23)nc2cccc(Cl)c2c1=O
Task: Let's sort these by IC50, smallest first. Go ahead? Ranked list of labels, please, in the requested order.
Output: III, IV, I, II, V

[P] CO[C@H]1C[C@@H](c2nc3cccc(Cl)c3c(=O)n2N2CCOCC2)N(c2nc(N)nc(C)c2C#N)C1
[Q] O=c1c2c(Cl)cccc2nc([C@@H]2CSCN2c2ncnc3[nH]cnc23)n1-c1ccccc1
Task: Which value of IC50 is numerically greater: that of P or that of Q ? Use the label to indicate which entry you chose.
Output: Q

[P] CC1(n2c([C@@H]3CCCN3c3nc(N)nc4[nH]cnc34)nc3cccc(Cl)c3c2=O)CC1
[Q] CS(=O)(=O)N[C@H]1C[C@@H](c2nc3cccc(Cl)c3c(=O)n2-c2ccccc2)N(c2ncnc3[nH]cnc23)C1
Task: Parameter metric = IC50. Return the lower-valued option from P and Q . To answer, give the label that identifies your chosen option.
Output: P
